Just for reference, PubChem BioAssay (NCI) is where these values come from.

System: SF-539 CNS
Assay: NCI tumour cell line growth inhibition, 48 h
Measured TGI accompanies every entry in the list below.

- Molecule: "C[Si](C)(C)CNC(=O)OCc1ccccc1"
  TGI: "> 100 µM"
- Molecule: "COc1cc2c(cc1OCCCCCN1C(=O)c3cccc4cccc(c34)C1=O)N=C[C@@H]1CCCN1C2=O"
  TGI: "2.55 µM"
- Molecule: "COc1ccc(NC2C(=O)C3(C)CCC2C3(C)C)cc1 (configuration not stated)"
  TGI: "> 100 µM"
- Molecule: "O=C1NC(=O)/C(=C/c2ccc3ncccc3c2)S1"
  TGI: "> 25 µM"
- Molecule: "NC(N)=Nc1ccc(CC(N)C(=O)NCC(=O)C(CC(=O)O)c2ncc(NC(=O)C(F)(F)F)o2)cc1 (configuration not stated)"
  TGI: "> 25 µM"
- Molecule: "CSc1ccc(C2=NN(c3ccccc3)C(c3ccc(-c4cc(Cl)c(Cl)cc4Cl)o3)C2)cc1 (configuration not stated)"
  TGI: "> 100 µM"
- Molecule: "CC[C@H]1CC(=O)c2c(cc3c(c2O)C(=O)c2ccccc2C3=O)[C@@]1(C#N)C(=O)OC(C)(C)C"
  TGI: "14.3 µM"
- Molecule: "Nc1ccc(Sc2nnc(N)s2)cc1"
  TGI: "> 100 µM"
- Molecule: "COc1cccc(-c2nnc3c(-c4ccccc4)nc4ccccc4n23)c1"
  TGI: "> 100 µM"
- Molecule: "CC(=O)O[C@]1(C)CCC2C(C)C(=O)OC2C2C(C)[C@@H](O)CC21 (some centres not stated)"
  TGI: "> 100 µM"
- Molecule: "Nc1nc(SCc2ccccc2)nc2[nH]ncc12"
  TGI: "41.7 µM"
- Molecule: "CC(=O)Nc1cccc2[nH]c3ccccc3c(=O)c12"
  TGI: "63.7 µM"
- Molecule: "CCn1cc(C(=O)O)c(=O)c2ccc(C)nc21"
  TGI: "> 100 µM"
- Molecule: "COc1ccc(Cc2c(N)[nH]c(=O)[nH]c2=O)cc1"
  TGI: "> 100 µM"
- Molecule: "CC(C#N)NCc1ccc(C(C)NC(C)C#N)cc1 (configuration not stated)"
  TGI: "> 100 µM"
- Molecule: "COC(=O)C1=C(OC(=O)/C(=C/c2ccccc2)c2ccc([N+](=O)[O-])cc2)C(C(=O)OC)[C@@]2(O)[C@@H](C(=O)OC)[C@H](C)C[C@@H]1[C@@H]2C(=O)OC (some centres not stated)"
  TGI: "> 100 µM"
- Molecule: "CCCCCCCCCCCCC(=O)CCCCC(=O)O"
  TGI: "36.6 µM"
- Molecule: "O=c1[nH]c2cc([N+](=O)[O-])ccc2nc1/C(=N/Nc1ccccc1)C(O)c1ccc(Cl)cc1Cl (configuration not stated)"
  TGI: "> 100 µM"
- Molecule: "N#Cc1cc(-c2ccnc(Nc3ccc(NC(=O)CCl)cc3)n2)ccc1N1CCCC1"
  TGI: "5.9 µM"
- Molecule: "Cn1cc(-c2csc(-c3c[nH]c4ccc(F)cc34)n2)c2cccnc21"
  TGI: "> 59.5 µM"
- Molecule: "Cc1ccc(N=Nc2c(C)nn(-c3ccccc3)c2C)c(Br)c1"
  TGI: "> 100 µM"
- Molecule: "COc1ccccc1N=NC(C(=O)c1ccccc1)C(=O)c1ccccc1"
  TGI: "> 100 µM"
- Molecule: "Cc1ccccc1NC(=O)C(=O)C1CN(c2ccccc2)N=C1N (configuration not stated)"
  TGI: "> 100 µM"
- Molecule: "CCOC(=O)C1=C(C#N)S(=O)(=O)c2c(oc(C)c2C)N1"
  TGI: "> 100 µM"
- Molecule: "O=[N+]([O-])c1ccc(NC(=S)N=Nc2c(O)[nH]c3ccccc23)cc1"
  TGI: "31.1 µM"
- Molecule: "O=C(O)[C@@H](NS(=O)(=O)c1ccc(F)cc1)c1ccccc1"
  TGI: "> 100 µM"
- Molecule: "CC1COC(c2cn[nH]c2C(N)=O)C1O (configuration not stated)"
  TGI: "> 100 µM"
- Molecule: "Cc1ccc(-c2cc(=O)c3cc4c(cc3[nH]2)OCO4)cc1"
  TGI: "4.54 µM"
- Molecule: "CCN(Cc1cc(F)cc(F)c1)c1ccc(CO)c(Cl)c1"
  TGI: "29.5 µM"
- Molecule: "O=C1CC(=O)c2c(N3CCCC3)sc(N3CCCC3)c21"
  TGI: "> 100 µM"
- Molecule: "O=C(CCCBr)Nc1ccccc1C#C/C=C\\C#Cc1ccccc1C(F)(F)F"
  TGI: "> 50 µM"
- Molecule: "COc1ccccc1-c1cc(=O)c2c(C)cc(C)nc2[nH]1"
  TGI: "> 100 µM"
- Molecule: "Cc1cc(C)nc(NS(=O)(=O)c2ccc(NC(=O)c3cccc4c(Nc5ccc(S(=O)(=O)N=C(N)N)cc5)c5ccccc5nc34)cc2)n1"
  TGI: "> 100 µM"
- Molecule: "NC(=O)C1CCCNC1 (configuration not stated)"
  TGI: "> 100 µM"
- Molecule: "Cc1ccc(O)c(-c2cc(-c3cccc(Br)c3)c(C#N)c(N)n2)c1"
  TGI: "75.5 µM"
- Molecule: "O=c1c(-c2ccccc2)c(SCCN2CCCC2)n(-c2ccccc2)c(=S)n1-c1ccccc1"
  TGI: "> 100 µM"
- Molecule: "O=C(CCC(=O)Nc1ccc(Cl)c(Cl)c1)CC(=O)c1ccc(Cl)cc1"
  TGI: "> 100 µM"
- Molecule: "CN(C)CCNC(=O)c1cccc2nc3c(ccc4ccccc43)nc12"
  TGI: "3.59 µM"
- Molecule: "C=C(C)[C@@H]1/C=C(/C(C)C)CC[C@@]2(C)OC2CC[C@H](C)CC1=O (some centres not stated)"
  TGI: "42.7 µM"
- Molecule: "O=C1c2cccc3cc4ccccc4c(c23)C(=O)N1CCNCCN1C(=O)c2cccc3cc4ccccc4c(c23)C1=O"
  TGI: "2.2 µM"
- Molecule: "CCOC(=O)CCC(C(=O)OCC)n1nc2ccc(Nc3c(C)[n+]([O-])c4ccc(Cl)cc4[n+]3[O-])cc2n1 (configuration not stated)"
  TGI: "43.9 µM"
- Molecule: "COc1cc(C=C2c3ccccc3C(=O)c3ccccc32)ccc1OCCCCOc1cc2c(cc1OC)C(=O)N1CCCC1C=N2 (configuration not stated)"
  TGI: "1.39 µM"

====

Tested on: NCI-H23 lung
Assay: NCI tumour cell line growth inhibition, 48 h
Measured GI50 accompanies every entry in the list below.

- Compound: "CC(=O)c1ccc(Nc2cc(-n3nnc4ccccc43)nc3ccccc23)cc1"
  Tested Target: "NCI-H23 lung"
  GI50: "15.8 µM"
- Compound: "O=C(/C=C/c1c(-c2ccccc2)[nH]c2ccccc12)S(=O)(=O)c1ccccc1"
  Tested Target: "NCI-H23 lung"
  GI50: "13.6 µM"
- Compound: "COc1ccc(-c2cc(C(=O)N3N=C(c4ccc(N)cc4)CC3c3ccc(Cl)cc3)c3ccccc3n2)cc1 (centres undefined)"
  Tested Target: "NCI-H23 lung"
  GI50: "3.14 µM"
- Compound: "CN(c1ccc(C(=O)O)cc1)c1cc(O/N=[N+](\\[O-])N(C)C)c([N+](=O)[O-])cc1[N+](=O)[O-]"
  Tested Target: "NCI-H23 lung"
  GI50: "4.83 µM"
- Compound: "CC(c1ccccc1)N1C(=O)CSC1=S (centres undefined)"
  Tested Target: "NCI-H23 lung"
  GI50: "6.82 µM"
- Compound: "CCOC(=O)c1cc(C(=O)c2cc(OC)cc(OC)c2)n2nc(C)ccc12"
  Tested Target: "NCI-H23 lung"
  GI50: "1.29 µM"
- Compound: "CCOC(=O)C(CC(C)C)NC(=O)C(Cc1ccc(N(CCCl)CCCl)cc1)NC(C)=O (centres undefined)"
  Tested Target: "NCI-H23 lung"
  GI50: "5.17 µM"
- Compound: "COc1cc(C(=O)/C=C/c2c(-c3cccs3)nc3sccn23)cc(OC)c1OC"
  Tested Target: "NCI-H23 lung"
  GI50: "0.814 µM"
- Compound: "Cc1ccc(N(CC(=O)Nc2ccc(S(=O)(=O)NC3CCN(C)CC3)cc2)S(=O)(=O)c2ccc(Cl)cc2)cc1"
  Tested Target: "NCI-H23 lung"
  GI50: "10.1 µM"

====

System: HL-60(TB) leukemia
Assay: NCI tumour cell line growth inhibition, 48 h; in the data active = GI50 below about 0.43 µM; inactive = the rest
Outcome codes: active, inactive

- Compound: "CCN(Cc1cc(F)cc(F)c1)c1ccc(CO)c(Cl)c1"
  Label: "inactive"
- Compound: "O=C1NC(=O)/C(=C/c2ccc3ncccc3c2)S1"
  Label: "inactive"
- Compound: "O=C(/C=C/c1c(-c2ccccc2)[nH]c2ccccc12)S(=O)(=O)c1ccccc1"
  Label: "inactive"
- Compound: "CCCCN1C=CCN(CCCC)C1"
  Label: "inactive"
- Compound: "COc1cc(Nc2cc(O)c3c(=O)cc(-c4ccccc4)oc3c2)cc(OC)c1"
  Label: "active"
- Compound: "CCOC(=O)c1cc(C(=O)c2cc(OC)cc(OC)c2)n2nc(C)ccc12"
  Label: "active"
- Compound: "N#Cc1cc(-c2ccnc(Nc3ccc(NC(=O)CCl)cc3)n2)ccc1N1CCCC1"
  Label: "inactive"
- Compound: "COc1ccccc1/C=C/C(=O)c1ccc(Nc2nc(Nc3ccc(F)cc3)nc(Nc3ccc(F)cc3)n2)cc1"
  Label: "inactive"
- Compound: "CCOC(=O)C(CC(C)C)NC(=O)C(Cc1ccc(N(CCCl)CCCl)cc1)NC(C)=O (configuration not stated)"
  Label: "inactive"
- Compound: "O=c1[nH]cnc2c1ncn2C1CCC(CO)O1 (configuration not stated)"
  Label: "inactive"
- Compound: "C=C(C)[C@@H]1/C=C(/C(C)C)CC[C@@]2(C)OC2CC[C@H](C)CC1=O (some centres not stated)"
  Label: "inactive"
- Compound: "COc1cc(Nc2ncc3c(C)nc(-c4cccc(C(F)(F)F)c4)n3n2)cc(OC)c1OC"
  Label: "inactive"
- Compound: "Oc1ccc(OCCOc2ccc(O)cc2)cc1"
  Label: "inactive"
- Compound: "O=C(CCCBr)Nc1ccccc1C#C/C=C\\C#Cc1ccccc1C(F)(F)F"
  Label: "inactive"
- Compound: "COc1cc(C(=O)/C=C/c2c(-c3cccs3)nc3sccn23)cc(OC)c1OC"
  Label: "inactive"
- Compound: "Cn1cc(-c2csc(-c3c[nH]c4ccc(F)cc34)n2)c2cccnc21"
  Label: "inactive"
- Compound: "O=[N+]([O-])c1cc([N+](=O)[O-])c(NN=C(c2ccc(O)cc2)c2ccc(O)cc2)cc1Cl"
  Label: "inactive"
